# experimental protocol: pKa value of compound was evaluated
# Assay type: physicochemical
Please go through the items and note down their pKa.
One number for each entry.

CCN(CC)Cc1cc(Nc2ccnc3cc(Cl)ccc23)ccc1F	4.39

Record pKa per entry; entries follow.
1. CCN(CC)Cc1cc(Nc2ccnc3cc(Cl)ccc23)ccc1O
2. CCN(CC)Cc1c(O)cc(F)c(Nc2ccnc3cc(Cl)ccc23)c1F
3. CCN(CC)Cc1cc(Nc2ccnc3cc(Cl)ccc23)cc(F)c1O
4. CCN(CC)Cc1c(O)c(F)c(F)c(Nc2ccnc3cc(Cl)ccc23)c1F
5. CCN(CC)Cc1cc(Nc2ccnc3cc(Cl)ccc23)c(F)c(F)c1O

*A*
1: 4.95; 2: 2.59; 3: 3.96; 4: 2.17; 5: 3.42
